- TARGET_OR_TEST_SYSTEM: B-RAF (Homo sapiens, UniProt P15056, V600E)
- Construct: made in house
- Sequence (P15056 whole entry V600E): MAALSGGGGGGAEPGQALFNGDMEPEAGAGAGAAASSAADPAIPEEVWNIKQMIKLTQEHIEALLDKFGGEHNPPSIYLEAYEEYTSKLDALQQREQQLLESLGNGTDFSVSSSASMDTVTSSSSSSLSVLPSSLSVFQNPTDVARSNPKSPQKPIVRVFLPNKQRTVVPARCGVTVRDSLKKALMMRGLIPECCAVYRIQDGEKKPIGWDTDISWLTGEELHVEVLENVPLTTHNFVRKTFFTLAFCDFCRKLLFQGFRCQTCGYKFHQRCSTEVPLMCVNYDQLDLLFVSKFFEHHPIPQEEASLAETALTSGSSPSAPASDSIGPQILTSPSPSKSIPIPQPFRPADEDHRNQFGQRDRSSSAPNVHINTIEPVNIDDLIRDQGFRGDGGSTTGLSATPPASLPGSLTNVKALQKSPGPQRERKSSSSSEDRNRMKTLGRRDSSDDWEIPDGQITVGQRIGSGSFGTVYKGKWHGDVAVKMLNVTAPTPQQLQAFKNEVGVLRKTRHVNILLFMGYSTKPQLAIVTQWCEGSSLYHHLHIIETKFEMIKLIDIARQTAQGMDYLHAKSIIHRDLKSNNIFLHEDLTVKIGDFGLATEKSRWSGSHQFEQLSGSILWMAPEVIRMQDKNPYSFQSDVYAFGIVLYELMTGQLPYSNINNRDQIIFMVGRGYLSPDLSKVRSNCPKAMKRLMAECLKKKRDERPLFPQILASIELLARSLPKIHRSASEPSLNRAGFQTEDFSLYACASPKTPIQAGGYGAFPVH
- PROTOCOL: DELFIA Kinase Assay
- Type: biochemical
- MEASUREMENT_CONDITIONS: 100 μM ATP, GST-MEK substrate
pIC50: −log10 of the molar value.
QUANTITY_NAME: pIC50

- COMPOUND_STRING: "CSc1cc(Oc2ccnc3ncc(=O)[nH]c23)ccc1NC(=O)Nc1ccc(Cl)c(C(F)(F)F)c1"
  pIC50: "> 7.00"
- COMPOUND_STRING: "CSc1cc(Oc2ccnc3[nH]c(=O)cnc23)ccc1NC(=O)Nc1cc(C(F)(F)F)ccc1F"
  pIC50: "> 7.00"
- COMPOUND_STRING: "CC(C)(C)c1cc(NC(=O)Nc2ccc(Oc3ccnc4[nH]c(=O)cnc34)cc2F)n(-c2ccc(S(C)(=O)=O)cc2)n1"
  pIC50: "6.00 to 7.00"

Challenge: Find the measured pIC50: item `O=C(Nc1cc(C(F)(F)F)ccc1F)Nc1ccc(Oc2ccnc3[nH]c(=O)c(C(F)(F)F)nc23)c2ccccc12` , target or system B-RAF (Homo sapiens, UniProt P15056, V600E).
Response given: 6.00 to 7.00

Challenge: Identify the measured pIC50 of `CC(C)(C)c1cc(NC(=O)Nc2ccc(Oc3ccnc4nc(N5CCOCC5)cnc34)cc2F)n(-c2ccccc2)n1` for B-RAF (Homo sapiens, UniProt P15056, V600E).
Response given: 6.00 to 7.00

Challenge: # query: pIC50 | item `C=CCn1nc(C(C)(C)C)cc1NC(=O)Nc1ccc(Oc2ccnc3[nH]c(=O)cnc23)cc1F` | system: B-RAF (Homo sapiens, UniProt P15056, V600E)
Response given: > 7.00

Challenge: # value lookup — system B-RAF (Homo sapiens, UniProt P15056, V600E), readout pIC50, item `Cc1nc2c(Oc3ccc(NC(=O)Nc4cc(C(F)(F)F)ccc4F)c4ccccc34)ccnc2[nH]c1=O`
Response given: > 7.00

----------
Reported pIC50 values for the following compounds.
- TARGET_OR_TEST_SYSTEM: B-RAF (Homo sapiens, UniProt P15056, V600E)
- PROTOCOL: DELFIA Kinase Assay
- MEASUREMENT_CONDITIONS: 100 μM ATP, GST-MEK substrate
pIC50: −log10 of the molar value.

Challenge: Endpoint output: pIC50 of `Cc1ccc(-n2nc(C(C)(C)C)cc2NC(=O)Nc2ccc(Oc3ccnc4nc(CBr)c(=O)[nH]c34)cc2F)cc1` . Value?
Response given: 6.00 to 7.00

Challenge: I would be grateful if you could share the reported pIC50 for `CC(C)(C)c1cc(NC(=O)Nc2ccc(Oc3ccnc4[nH]c(=O)c(=O)[nH]c34)cc2F)n(-c2ccccc2)n1` .
Response given: 6.00 to 7.00

Challenge: Record request: pIC50 value, item `CSc1cc(Oc2ccnc3ncc(=O)[nH]c23)ccc1NC(=O)Nc1cc(C(C)(C)C)nn1-c1ccccc1`
Response given: 6.00 to 7.00

Challenge: Can you share its pIC50? I mean this compound: `CN(C)c1cnc2c(Oc3ccc(NC(=O)Nc4cc(C(F)(F)F)ccc4F)c(F)c3)ccnc2n1`
Response given: 6.00 to 7.00

----------
- TARGET_OR_TEST_SYSTEM: B-RAF (Homo sapiens, UniProt P15056, V600E)
- PROTOCOL: DELFIA Kinase Assay
- MEASUREMENT_CONDITIONS: 100 μM ATP, GST-MEK substrate
QUANTITY_NAME: IC50

# count of solved cases: 2
- COMPOUND_STRING: "Cc1nc2nccc(Oc3ccc(NC(=O)Nc4cc(C(C)(C)C)nn4-c4ccccc4)c4ccccc34)c2[nH]c1=O"
  TARGET_OR_TEST_SYSTEM: "B-RAF (Homo sapiens, UniProt P15056, V600E)"
  QUANTITY_NAME: "IC50"
  OBS_VALUE: "100 to 1000 nM"
- COMPOUND_STRING: "Cc1ccc(-n2nc(C(C)(C)C)cc2NC(=O)Nc2ccc(Oc3ccnc4[nH]c(=O)c(=O)[nH]c34)cc2F)cc1"
  TARGET_OR_TEST_SYSTEM: "B-RAF (Homo sapiens, UniProt P15056, V600E)"
  QUANTITY_NAME: "IC50"
  OBS_VALUE: "< 100 nM"

Challenge: Entry `O=C(Nc1ccc(Cl)c(C(F)(F)F)c1)Nc1ccc(Oc2ccnc3[nH]c(=O)cnc23)cc1F` : reported IC50 = ?
Response given: < 100 nM

Challenge: # IC50 lookup, item `O=C(Nc1ccc(Oc2ccnc3[nH]c(=O)cnc23)cc1F)Nc1cc(C(F)(F)F)ccc1-n1cccn1`
Response given: < 100 nM

----------
- TARGET_OR_TEST_SYSTEM: B-RAF (Homo sapiens, UniProt P15056, V600E)
- PROTOCOL: DELFIA Kinase Assay
- MEASUREMENT_CONDITIONS: 100 μM ATP, GST-MEK substrate
- Description: Biological Methods—DELFIA Kinase Assay Compounds were assessed by a kinase assay performed according to the following protocol. DKB1 (DKB with B-RAF and MEK Protein): Combine 4950 μL of DKB and 50 μL of 2.5 mg/ml GST-MEK stock (to give 1 mg of MEK per 40 μL). […] • 1. […] Read on Victor using Europium protocol. Values for the blank (Empty Vector) are subtracted from all values. The DMSO controls are set as 100% activity and assay points (the response) are calculated as a percentage of the DMSO control. […]
QUANTITY_NAME: IC50

Please review the following examples before continuing.
- COMPOUND_STRING: "O=C(Nc1ccc(Oc2ccnc3[nH]c(=O)cnc23)cc1F)Nc1cc(C(F)(F)F)ccc1F"
  IC50: "< 100 nM"
- COMPOUND_STRING: "Nc1nc2c(Oc3ccc(NC(=O)Nc4cc(C(F)(F)F)ccc4F)c4ccccc34)ccnc2[nH]c1=O"
  IC50: "< 100 nM"
- COMPOUND_STRING: "COc1ccc(-n2nc(C(C)(C)C)cc2NC(=O)Nc2ccc(Oc3ccnc4[nH]c(=O)cnc34)cc2SC)cn1"
  IC50: "< 100 nM"

Challenge: Entry `Cc1ccc(-n2nc(C(C)(C)C)cc2NC(=O)Nc2ccc(Oc3ccnc4ncc(=O)[nH]c34)cc2)cc1` , system B-RAF (Homo sapiens, UniProt P15056, V600E): what IC50 was measured?
Response given: 100 to 1000 nM

----------
- TARGET_OR_TEST_SYSTEM: B-RAF (Homo sapiens, UniProt P15056, V600E)
- PROTOCOL: DELFIA Kinase Assay
- MEASUREMENT_CONDITIONS: 100 μM ATP, GST-MEK substrate
pIC50: −log10 of the molar value.
QUANTITY_NAME: pIC50

Please review the entries below; each comes with its answer.
- COMPOUND: "Cc1nc2c(Oc3cccc(NC(=O)c4cccc(C(C)(C)C)c4)c3)ccnc2[nH]c1=O [AA-005]"
  TARGET_OR_TEST_SYSTEM: "B-RAF (Homo sapiens, UniProt P15056, V600E)"
  OBS_VALUE: "> 7.00"
- COMPOUND: "O=C(Nc1ccc(Oc2ccnc3[nH]c(=O)cnc23)cc1F)Nc1cc(C(F)(F)F)ccc1Oc1cccnc1 [AA-093]"
  TARGET_OR_TEST_SYSTEM: "B-RAF (Homo sapiens, UniProt P15056, V600E)"
  OBS_VALUE: "> 7.00"
- COMPOUND: "O=C(Nc1ccc(Oc2ccnc3ncc(=O)[nH]c23)cc1)Nc1cc(C(F)(F)F)ccc1F [AA-043]"
  TARGET_OR_TEST_SYSTEM: "B-RAF (Homo sapiens, UniProt P15056, V600E)"
  OBS_VALUE: "6.00 to 7.00"
- COMPOUND: "Cc1ccc(-n2nc(C(C)(C)C)cc2NC(=O)Nc2cccc(Oc3ccnc4[nH]c(=O)cnc34)c2)cc1 [AA-006]"
  TARGET_OR_TEST_SYSTEM: "B-RAF (Homo sapiens, UniProt P15056, V600E)"
  OBS_VALUE: "> 7.00"
- COMPOUND: "COc1ccc(-n2nc(C(C)(C)C)cc2NC(=O)Nc2ccc(Oc3ccnc4[nH]c(=O)cnc34)cc2F)cn1 [AA-062]"
  TARGET_OR_TEST_SYSTEM: "B-RAF (Homo sapiens, UniProt P15056, V600E)"
  OBS_VALUE: "> 7.00"

Attention now shifts to the item below.
Challenge: pIC50 lookup needed for O=C(Nc1ccc(Cl)c(C(F)(F)F)c1)Nc1ccc(Oc2ccnc3ncc(=O)[nH]c23)cc1F [AA-048] , thanks.
Response given: > 7.00
